B1: FERM and PDZ domain-containing protein 4, residues 75 to 154; numbered along this chain, Q14CM0 (parent)
chain: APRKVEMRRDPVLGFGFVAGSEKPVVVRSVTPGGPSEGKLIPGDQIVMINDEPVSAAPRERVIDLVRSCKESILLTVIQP

variants of: B1; experiment: abundance fitness (aPCA) (normalised: wild type 0, dead -1); higher = more abundant; growth selection in yeast, the domain comes from the species named; conditions: Homo sapiens
I'd be grateful if you could share measured abundance fitness for these entries.
Please state the value as a number alone, without comment.

Consider P35L . Its measured abundance fitness is -0.857

I63W yielded abundance fitness of -0.041

abundance fitness measured on T76K = -0.036

response.value for G33L (field: abundance fitness) = -0.104

Per the records, this variant ( I49Y ) has abundance fitness equal to -0.855

The variant G33R showed abundance fitness equal to -0.104

# variant V26G ; its abundance fitness = -0.446

Notebook: P2G , abundance fitness read as 0

abundance fitness recorded for this variant, R67F , is -0.095

So, E6G ? Its abundance fitness was -0.144

In plain terms, Q45W has a documented abundance fitness of -0.2

abundance fitness measured on A19M = 0.003

Input P11E . Output abundance fitness: -0.117

According to the records, this variant M48R displays abundance fitness of -0.046

Consider D10R . Its measured abundance fitness is -0.455

// sample G16T , its abundance fitness was -0.946

Please fill in: abundance fitness reported for G38W = -0.274

Record I49C , field abundance fitness: -0.267

The variant K23F showed abundance fitness equal to -0.066

Kindly note the recorded abundance fitness for V77R , which is -0.728

Just so you know, measured abundance fitness for V18K came out at -0.118

Record C69W . Reported abundance fitness: -0.591
